# key: entry, value: apparent KD of MS2 coat protein
system: MS2 coat protein; experiment: apparent KD of MS2 coat protein; designed switch direction (-1 OFF switch, 1 ON switch): -1; higher = weaker reporter binding; conditions: input ligand: microRNA oligo, concentration not stated

| Residue Codes | apparent KD of MS2 coat protein, nM |
| --- | --- |
| CAGUACUGAGGAUAUACAUGAGGAUCACCCAUGUGUUCCAGCUAGGAAACUAGCAAAAGUAGAAGGCAGUACUG [Ex3: 828] (Eterna round: R96, puzzle: Exclusion 3) | 22.1 |
| UGAUCAGACCGAGGAUAUACAUGUAGGACGCACGUGAGUGCGUCCAUUACAUGAGGAUCACCCAUGUAGAAGGCGGUCUGAUCU [JL ENG2 1.93] (Eterna round: R96, puzzle: Exclusion NG 2) | 133 |
| AGCUGUGAGUGAGGAUAUCUGCUGUUGUCAGUCGGAGAAGGCGCGGACAGAACAUGAGGAUCACCCAUGUGUAUGGGCGGCCUC [Usatia] (Eterna round: R96, puzzle: Exclusion NG 1) | 43.6 |
| CCGGUUGGCGCAGGAUAUACAUGAGGAUCACCCAUGUUCAUCAGGAUCACCGAUGAGUUUUUGUUGUAGAAGGGUGGCCCGGCC (Eterna round: R96, puzzle: Exclusion NG 2) | 24.2 |
| UUAGGCUGAAGAUCAAUUAAUUAACAUGAGGAUCACCCAUGUAAGGAUAUCAGCUCGAUUAGAGCUGAGAAGGUACAUGCAGCC [ExNG3/18-A1] (Eterna round: R96, puzzle: Exclusion NG 3) | 102 |
| AGAACAUGAGGAUCACCCAUGUCGCUUUGCCUACCAAACAGGGAGGAUAUGUAGGGCGCGCACCUACAGAAGGCCCAAACGGAA [Eternabot solution 13] (Eterna round: R96, puzzle: Exclusion NG 3) | 18.5 |
| AUAUCAAGCAAGGAUAUGCAAAUGGUUAUUUAUGCAGAAGGUGCAACAUGAGGAUCACCCAUGUUUCUGGGUUU [JR_E6_Sub049] (Eterna round: R96, puzzle: Exclusion 6) | 41.7 |
| CUGCUCCGUGUAGGAUAUGCAUACUCCCAUUAUGCAGAAGGACAUGAGGAUCACCCAUGUAUGUUAUUAUCACGUGUAGCGUAC [Design 15] (Eterna round: R96, puzzle: Exclusion NG 1) | 21.2 |
| CCCAGUUAUCUAGGAUAUUGUACAUGAGGAUCACCCAUGUAAUAAAUGAGGAUUUCGGGUGUCUACAAGAAGGAGAGGAUAGGC [Ostracism 16 - Jieux - Exclusion NG 2] (Eterna round: R96, puzzle: Exclusion NG 2) | 20.4 |
| AGAGUACUGCGAGGAUAUACAUGAGGAUCACCCAUGUAAUAGUGUGAGGCUUUGCCUCACACAAUGUAGAAGGCGCAGUACUCA [Mat - Exclusion NG 2 - Mod of JL - D6] (Eterna round: R96, puzzle: Exclusion NG 2) | 9.81 |
| AAGACAAAUGUAGGAUAUGCGUGGCGAAGCUAUGCAGAAGGACAUGAGGAUCACCCAUGUCUAAGCGUCUGCGUACAGAUGCUA [JL eng1 1.35 mod 8] (Eterna round: R96, puzzle: Exclusion NG 1) | 10.7 |
| ACAUGAGGAUCACCCAUGUCUGGCUGGUCCGUCUCGGCUGUCGAGGAUAUGGCUCGGUGUCCGCGCUAGAAGGCGGGAGCCGGA [Aenatbe mod 77] (Eterna round: R96, puzzle: Exclusion NG 3) | 58.2 |
| UAUAUAUAGUAAGGAUAUGUAUUAAUUUUAUCAACAGAAGGUACUGACAUGAGGAUCACCCAUGUUUUAGUGUGGGCAUGUAGA [JMF's solution 92] (Eterna round: R96, puzzle: Exclusion NG 1) | 65.2 |
| ACAUGAGGAUCACCCAUGUAAACAUAAUGGCUCAUGUAGAGUCAGGAUAUGCGUGGCGAACAAUCGCAGAAGGGACAAGACUGG [Deportation 28 - Jieux - Exclusion NG 3] (Eterna round: R96, puzzle: Exclusion NG 3) | 19.9 |
| ACAUGAGGAUCACCCAUGUUUUUCGGGUACUCUUGAUACAGCAAGGAUAUGCAUUAUUUAUGUACGCAGAAGGUGCAUUACGUC [JR_ExcNG3_Sub064] (Eterna round: R96, puzzle: Exclusion NG 3) | 67 |
| AAACAAGCGUGAGGCUCGUCUUAAAAAGCUUCAUGAAAAACAUGAGGAUCACCCAUGUAAAAUGAUCGAAAGAUCAA [JL turnoff v2 28] (Eterna round: R96, puzzle: Sensor v2, turn-off variant 2) | 34.2 |
| AAAAUACAUGAGGAUCACCCAUGUCAGGAUAUGCUAAAAAAAAAAUUAAAAAAAAAAUGUAGAAGGGACUAAAA [Exclusion Z2] (Eterna round: R96, puzzle: Exclusion 1) | 71.6 |
| AACCGUGCGGAGGAUAUUGAUAUCCCAGUCUAUCAAGAAGGCUGCACAUGAGGAUCACCCAUGUGAUCCGUGCU [Riri] (Eterna round: R96, puzzle: Exclusion 6) | 20.7 |

----------
tested on: K4 kissing-loop RNA reporter; assay: apparent KD of K4 kissing-loop reporter; higher = weaker reporter binding; conditions: Eterna round: R107; input ligand: theophylline 20 uM;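 also: bound reporter read as fluorescence of individual clusters on recovered sequencing chips by microscopy, with normalized cluster intensities fitted with a binding model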

| Residue Codes | Unit Spec | apparent KD of K4 kissing-loop reporter |
| --- | --- | --- |
| CAGAUCACAGAGUGAUGUUCUGUGUCCGAAGGAGCGCGCUUCGGCGCAGGUAGGUCGCGGAUACAGUUGACGUACCAUCUAGACA [Arg A Ex t3c] | µM | 0.485 |
| GUAUCGCUAGGAGGAUAUUUCGUUUUUCAUAGCAAUGGCUAUGCGGAGUGAUGUUCCGAUUUACCGGAAGAAGGCCUAGUGAUAC [FMN B 26] | µM | 0.205 |
| AAUAAAAUCACGGCCGCCACUGAUUUUUUUAUUAGGAGUGAUGUUCCUUUGUCUAUAUACCUUAACAGGACCGGGUGAAUAUUUA [JR_SSTryptoB_Sub022] | µM | 0.0955 |
| AACCGAGGUAAUCCACAAUGAUUAGAAGAUACCAGAUAUAUAAAUAUCCCUUGGCAGCUUUGAAUGAGUGAUGUUCAUUUGUCAU [KL-SSTheo-A11] | µM | 0.214 |
| AAUGGAGGCUGAAGGAGCGCCGCCAGUGAUGUUGGGAGUUAGAUACCAGUGAUGUUGGGCCGGCAGGUAGGUCGCGGUUUUUAUU [Exclusion Arginine B Gf 16] | µM | 0.153 |
| AGACUACUGAUAGGAUAUAACAUACUACUCGUAUACCGAAAGGUAUACGAGACCCUUCUAGUGAUGUUAGAAGGGUCGGUAGUCA [Omei KL FMN B Exc B v8] | µM | 0.0686 |
| UAACCUGUAAACGAUACCAGUUGCAUGGAAACUUGGUACUAGCUAGUGAUGUUAGCAAGCAACCCUUGGCAGCGUCGCCUGACAG [theeternabot_sameState_KL_Theo_B_17] | µM | 0.487 |
| UUUAUUAAGACGGCCGCCACUGAUUCAGAGUGAUGUUCUGAUAUUUUUUUAUAUAAUAAUAACAGCAGGACCGGGUCAAUUAUUA [JR_SSTryptoB_Sub013] | µM | 0.272 |
| UAACGCCACUAAGAUACCAGACAUACAGAUCGGAUCUCCUAAAGAGAGUGAUGUUCUCUAGUCCCUUGGCAGCUUCUGGACUCCC [theeternabot_sameState_KL_Theo_B_9] | µM | 0.396 |
| GGACCGCCAGUGAUGUUGGAGAUAAACUCCAAGGAUAUGACGAAAGUCAGAAGGUGGUAAUAAGACGUCAAAGACGUCAGGUCCA [FmnA 21 #SwitchBubble #K4Early] | µM | 0.301 |
| GGGAACUCUUACGAUACCAGCCGGAGUGAUGUUCCGUGCUUGGACGUAGUAACCCGCACCGGCCCUUGGCAGCGUGGAUCUUGUG [Esgeonin] | µM | 0.0732 |
| AAGCAUUGGUCUGAUACCAGUUGAUGACGAAUACGUCAACUGGAGUGAUGUUCCUAAAACAACCCUUGGCAGCAGACCGAUGCAA [MAT - Same State Theophlline B - Mod of Eli - D2] | µM | 0.75 |
| ACGUCAUCAAAAGGAUAUGCAUCGAAGUGAUGUUUCGUCAUAUCAGUCUGAUUGCAGCAAUUAGGAGCAGAAGGUUUAGUCCGGU [theeternabot_exclusion_KL_FMN_B_11] | µM | 0.0776 |
| GGUGCGGGCUCGGCCGCCACUCCCUCCUGCCGUAAGGUGGGAUACCGAGUGAUGUUCGGUUGGAGGAGGACCGGGAGCCCGUGCC [#2 Exclusion - Tryptophan B Attempt #16 (HarryS)] | µM | 0.11 |
| UGGAGUUGACGAAAAGUCAACUCCGGAGAAGGAGCGGACGAAAGUCCAGGUAGGUCGCUCCCUACCAGUGAUGUUGGUACUGAAA | µM | 0.319 |
| GUCCACACUGCAGGAUAUGGAGGAAUAGCGAGGGAGUGUGGAAGCACACCUCUGGCAGUGAUGUUGCCAGAAGGGCGGUGCGGCG [Cemaorar] | µM | 0.069 |
| GCAUGACGGUAAGGAUAUAGAUAAUCCUUAUAUACGUCGAGUGAUGUUCGAUGUGCCAAGGCACAUCUAGAAGGUACUGUUAGGU [Same State FMN B GF 18] | µM | 0.725 |
| UGAUACCAGACGGCCGCCACUCCCGUAAGUCAAAGACUUACGAAGAGAGUUUUCCAGUGAUGUUGGAGGACCGGGUCUGGUAUCU [FiskerMod 15 - Jieux - Exclusion - Tryptophan B] | µM | 0.174 |
| UCCUCGAAUCGACCUCGAAAGAGGAUGGAUACCAGUCUUGAUAAAGACCCUUGGCAGCCAGUGAUGUUGGAACGAGGUAAAUAAA [#SwitchBubble 19 #K4Late] | µM | 0.535 |
| UGGAUAUAGUGAUGUUAUAUAGAGAUGGAUACCAGUUUAGAGAAGAGCCCUUGGCAGCCGAAAGAAGUAUCAUUAGAGAAGAAUG [ExTheophyl.Al] | µM | 0.212 |
| AACUCUCAGACACCUGAGUGAUGUUCAGGCCGAGGACCGGUACGGCCGCCACUCGGGUCUGAGAGAGGUUAUCAAAGAUAGCCAA [Omei KL Tryp A SS A v3] | µM | 0.304 |
| AAGCAGUCACUCUAAGCCAUCGAAGAUGGACGAGGACCGGUACGGCCGCCACUCGGAGUGAUGUUCCGAAGACUGCAAAAUAAAA | µM | 0.396 |
| CACCGCAACUGAAGGAGCGCGCCAGUGAUGUUGGACGGCUUUGUCAAGGAAACUGCACCGGUGCAGGUAGGUCGCAGUUCGCGGC [Ededisa] | µM | 0.278 |
